System: KHYG-1 NK cells
Experiment: Toxicity to KHYG-1 NK cells (trypan blue viability)
Format: cell-based
Settings: viable cells as percentage of total (% viability), 18 to 24 hours
molecules and their reported percent viable KHYG-1 cells (trypan blue) at 20 μM
Output spec: scalar in %, unitless text.

Worked cases, percent viable KHYG-1 cells (trypan blue) at 20 μM given:
INSERT INTO measurements (compound_structure, output_unit, endpoint_result) VALUES
  ('O=C1NCC/C1=C\c1ccc(-c2ccc3c(c2)COC3=O)s1', '%', 97),
  ('NC(=O)c1cccc(-c2ccc(/C=C3/NC(=S)NC3=O)s2)c1', '%', 100),
  ('O=C1NC(=S)N/C1=C\c1ccc(-c2ccc3c(c2)COC3=O)cn1', '%', 96);

molecule O=C1NC(=S)N/C1=C\c1ccc(-c2ccc3c(c2)CCNC3=O)s1 , percent viable KHYG-1 cells (trypan blue) at 20 μM observed: 80

molecule CC(=O)c1ccc(-c2ccc(/C=C3/NC(=S)NC3=O)s2)cc1 , percent viable KHYG-1 cells (trypan blue) at 20 μM observed: 100

====

compounds and their reported melting point

INSERT INTO results (compound, measured_parameter, endpoint_result) VALUES
  ('O=C1NC(=S)N/C1=C\c1ccc(-c2ccc3c(c2)COC3=O)cc1 [Cmpd 6]', 'melting point', '> 300 °C'),
  ('O=C1NCC/C1=C\c1ccc(-c2ccc3c(c2)COC3=O)s1 [Cmpd 37]', 'melting point', '224 to 227 °C'),
  ('O=C1NC(=S)N/C1=C/c1cnc(-c2ccc3c(c2)COC3=O)o1 [Cmpd 54]', 'melting point', '> 295 °C'),
  ('COc1ccc(-c2ccc(/C=C3/NC(=S)NC3=O)s2)cc1 [Cmpd 22]', 'melting point', '288 to 293 °C');

compound O=C1NC(=S)N/C1=C\c1nc(-c2ccc3c(c2)COC3=O)cs1 [Cmpd 56] , melting point observed: > 295 °C

compound O=C1NC(=S)N/C1=C/c1ccc(-c2ccc3c(c2)COC3=O)o1 [Cmpd 1] , melting point observed: > 300 °C

compound O=C1NC(=S)N/C1=C\c1cnc(-c2ccc3c(c2)COC3=O)s1 [Cmpd 55] , melting point observed: > 300 °C

compound O=C1NC(=S)N/C1=C/c1ccc(-c2ccc3c(c2)COC3=O)[nH]1 [Cmpd 53] , melting point observed: > 300 °C

compound O=C1NC(=O)/C(=C\c2ccc(-c3ccc4c(c3)COC4=O)s2)N1 [Cmpd 3] , melting point observed: > 300 °C

compound O=C1NC(=S)N/C1=C/c1cc(-c2ccc3c(c2)CNC3=O)cs1 [Cmpd 50] , melting point observed: > 300 °C

compound O=C1NC(=S)N/C1=C\c1csc2ccc(-c3ccc4c(c3)COC4=O)cc12 [Cmpd 9] , melting point observed: > 300 °C

compound O=C1NC(=S)N/C1=C\c1csc(-c2ccc3c(c2)COC3=O)n1 [Cmpd 57] , melting point observed: > 295 °C

compound CN(C)CCCN1Cc2cc(-c3ccc(/C=C4/NC(=S)NC4=O)s3)ccc2C1=O [Cmpd 74] , melting point observed: 212 °C (dec.)

compound O=C1NC(=S)N/C1=C\c1cccc(-c2ccc3c(c2)COC3=O)c1 [Cmpd 5] , melting point observed: 285 to 288 °C

compound O=C1NC(=S)N/C1=C/c1cc2cc(-c3ccc4c(c3)COC4=O)ccc2o1 [Cmpd 10] , melting point observed: > 300 °C

compound O=C1NC(=S)N/C1=C\c1ccc2ccc(-c3ccc4c(c3)COC4=O)cc2n1 [Cmpd 13] , melting point observed: > 310 °C

compound O=C1NC(=S)N/C1=C\c1ccc(-c2ccc3c(c2)COC3=O)cn1 [Cmpd 8] , melting point observed: > 300 °C

compound O=C1NC(=S)N/C1=C/c1cc2cc(-c3ccc4c(c3)COC4=O)ccc2s1 [Cmpd 79] , melting point observed: > 305 °C

compound O=C1NC(=S)N/C1=C\c1cccc(-c2ccc3c(c2)CNC3=O)c1 [Cmpd 49] , melting point observed: > 300 °C

compound O=C1C/C(=C/c2ccc(-c3ccc4c(c3)COC4=O)s2)C(=O)N1 [Cmpd 36] , melting point observed: > 295 °C

compound O=C1NC(=S)N/C1=C/c1cc2cc(-c3ccc4c(c3)COC4=O)ccc2[nH]1 [Cmpd 12] , melting point observed: > 300 °C

compound O=C1NC(=S)N/C1=C/c1ccc(-c2cccnc2)s1 [Cmpd 26] , melting point observed: > 295 °C

compound O=C1NC(=S)N/C1=C\c1cc(-c2ccc3c(c2)COC3=O)ns1 [Cmpd 60] , melting point observed: > 300 °C
